Molecular target: T1, HLA-DRB5 (HLA-DRB5*01:01) (human)
T1 construct: mature; purified from homozygous EBV-transformed lymphoblastoid cells with antibody L243
Assay: competition ELISA vs biotin-HA 306-318;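 also: HLA and competitor incubated 24 to 72 h, maximal signal taken from wells lacking competitor, background from wells lacking HLA molecule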
No end group written: not given here.
MEASUREMENT_KIND: relative affinity
# print the numeric value only

Notebook: H-KNVVMVNQGLTKHMT-NH2 (not fully specified) [CCNB1 385-399] , relative affinity read as 52

Form: binder = NKVSEQLQAKMPMKK-NH2 [CCNB1 50-64] ; relative affinity = 51

Entry RALNFGLGRPLPLHF-NH2 [CCNB1 291-305] ; relative affinity = 4

Measured relative affinity of PNLCSEYVKDIYAYL-NH2 [CCNB1 164-178] : 500

Item: RQLEEEQAVRPKYLL-NH2 [CCNB1 179-193] | relative affinity: 2160

response.value for DRFMQNNCVPKKMLQ-NH2 [CCNB1 231-245] (field: relative affinity) = 1580

The measured relative affinity associated with PEIGDFAFVTDNTYT-NH2 [CCNB1 264-278] reads 61

The binder NKYATSKHAKISTLP-NH2 [CCNB1 402-416] showed relative affinity equal to 1730

Sample SKYEEMYPPEIGDFA-NH2 [CCNB1 256-270] ; relative affinity observed: 603

Notebook: QGLTKHMTVKNKYAT-NH2 [CCNB1 392-406] , relative affinity read as 47

The binder listed as REVTGNMRAILIDWL-NH2 [CCNB1 195-209] has a reported relative affinity of 1410

// sample TGKVIDKKLPKPLEK-NH2 [CCNB1 71-85] , its relative affinity was 250

The binder KDIYAYLRQLEEEQA-NH2 [CCNB1 172-186] showed relative affinity equal to 775

Reported relative affinity ( SKINAENKAKINMAG-NH2 [CCNB1 9-23] ) = 1000

Documented relative affinity of GEWTPTLQHYLSYTE-NH2 [CCNB1 359-373] : 224

Record NTYTKHQIRQMEMKI-NH2 [CCNB1 275-289] , field relative affinity: 50

Just so you know, measured relative affinity for LDYDMVHFPPSQIAA-NH2 [CCNB1 332-346] came out at 1580

Data point: QAVRPKYLLGREVTG-NH2 [CCNB1 185-199] ; relative affinity = 1670

Sample EQLQAKMPMKKEAKP-NH2 [CCNB1 54-68] ; relative affinity observed: 35

Measured relative affinity of LALKILDNGEWTPTL-NH2 [CCNB1 351-365] : 3060

# binder SKIGEVDVEQHTLAK-NH2 [CCNB1 310-324] ; its relative affinity = 1500

Kindly note the recorded relative affinity for LSYTEESLLPVMQHL-NH2 [CCNB1 369-383] , which is 1380

Just so you know, measured relative affinity for FAFVTDNTYTKHQIR-NH2 [CCNB1 269-283] came out at 42
